Data credit: patent US8357717B2

Attribute: inhibition at 10 µM
# test_system: B1R receptor of the rat (rB1R) (Rattus norvegicus, UniProt P97583)
# Construct: expressed in transfected cells; host or cells: CHO K1 cells, stably transfected
# Sequence (P97583 whole entry): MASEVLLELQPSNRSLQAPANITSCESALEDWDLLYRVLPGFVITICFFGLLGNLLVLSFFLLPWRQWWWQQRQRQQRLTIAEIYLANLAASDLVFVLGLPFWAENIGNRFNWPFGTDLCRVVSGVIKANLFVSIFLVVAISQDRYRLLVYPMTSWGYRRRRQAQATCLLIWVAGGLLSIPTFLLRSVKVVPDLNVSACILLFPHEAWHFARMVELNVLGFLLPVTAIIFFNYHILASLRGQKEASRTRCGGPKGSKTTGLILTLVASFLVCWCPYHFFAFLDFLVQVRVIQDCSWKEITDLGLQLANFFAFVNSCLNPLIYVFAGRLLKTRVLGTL
# test_description: FLIPR Ca2+ functional study on bradykinin receptor 1, rB1R cells (CHO K1)
# Format: cell-based
# conditions_used: 10 μM test substance; CHO K1 cells with rat B1R; agonist Des-Arg9-bradykinin at EC80; read-out: B1R antagonism, rat [10 μM] % inhibition
The reply should consist of the numeric value with the unit placed after it.

smiles_str	result_value
COc1cc(C)c(C(=O)N2Cc3ccc(C(=O)N4CCC5(CC4)CCN(c4ccncc4)CC5)cc3C2)c(C)c1	13%
O=C(c1ccc2c(c1)CN(C(=O)C(c1ccccc1)c1ccccc1)CC2)N1CCC2(CC1)CCN(c1ccncc1)CC2	106%
COc1cc(C)c(S(=O)(=O)N2CCCc3ccc(CC(=O)N4CCC5(CC4)CCN(c4ccncc4)C5)cc32)c(C)c1	96%
O=C(Nc1ccc(Cl)c(Cl)c1)N1CCc2ccc(C(=O)N3CCC4(CC3)CCN(c3ccncc3)CC4)cc2C1	94%
COc1cc(C)c(S(=O)(=O)N2CCCc3ccc(CC(=O)N4CCC5(CC4)CCN(c4ccncc4)CC5)cc32)c(C)c1	98%

Inquiry: Report the value of inhibition at 10 µM obtained on B1R receptor of the rat (rB1R) (Rattus norvegicus, UniProt P97583) for `COc1cc(C)c(S(=O)(=O)N2CCCc3ccc(C(=O)N4CCC5(CC4)CCN(c4ccncc4)CC5)cc32)c(C)c1` .
Reply text: 100%

Inquiry: Report the value of inhibition at 10 µM obtained on B1R receptor of the rat (rB1R) (Rattus norvegicus, UniProt P97583) for `O=C(c1ccc2c(c1)CN(C(=O)c1ccccc1Cl)C2)N1CCC2(CC1)CCN(Cc1ccc(F)cc1)C2=O` .
Reply text: 51%

* * *

Attribute: inhibition at 10 µM
# test_system: human B1R receptor (hB1R) (Homo sapiens)
# Construct: expressed in transfected cells; host or cells: CHO K1 cells, stably transfected
# Sequence (P46663 whole entry): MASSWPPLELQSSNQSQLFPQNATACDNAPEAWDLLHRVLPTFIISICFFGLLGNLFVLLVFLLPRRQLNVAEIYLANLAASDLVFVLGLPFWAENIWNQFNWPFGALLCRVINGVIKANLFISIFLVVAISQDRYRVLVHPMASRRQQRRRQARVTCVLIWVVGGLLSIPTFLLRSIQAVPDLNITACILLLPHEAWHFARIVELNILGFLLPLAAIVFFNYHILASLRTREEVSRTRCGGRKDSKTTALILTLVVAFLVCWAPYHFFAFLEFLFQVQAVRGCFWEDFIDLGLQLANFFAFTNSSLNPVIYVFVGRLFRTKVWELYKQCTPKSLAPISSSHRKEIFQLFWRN
# test_description: FLIPR Ca2+ functional study on bradykinin receptor 1, hB1R cells (CHO K1)
# Format: cell-based
# conditions_used: CHO-K1, 10 μM test substance; CHO K1 cells with human B1R; agonist Lys-Des-Arg9-bradykinin at EC80; read-out: B1R antagonism, human [10 μM] % inhibition
Provide the reading as a plain figure in %.

Examples with their reported inhibition at 10 µM follow.
smiles_str	unit_annotation	inhibition at 10 µM
O=C(c1ccccc1Cl)N1CCc2onc(C(=O)N3CCC4(CC3)CCN(c3ccncc3)CC4)c2C1	%	100
COc1cc(C)c(S(=O)(=O)N2CCc3sc(C(=O)N4CCC5(CC4)CCN(c4ccncc4)CC5)cc3C2)c(C)c1	%	97
COc1cc(C)c(S(=O)(=O)N2CCc3ccc(CC(=O)N4CCC5(CC4)CCN(c4ccncc4)CC5)cc32)c(C)c1	%	100
COc1cc(C)c(S(=O)(=O)N2CCCc3ccc(CC(=O)N4CCC5(CCC(N6CC(F)(F)C6)CC5)CC4)cc32)c(C)c1	%	18
O=C(c1ccc2c(c1)CN(C(=O)c1cc3c(s1)CCC3)CC2)N1CCC2(CC1)CCN(c1ccncc1)CC2	%	98

Inquiry: Please indicate inhibition at 10 µM recorded for `O=C(Nc1ccc(Cl)c(Cl)c1)N1CCc2onc(C(=O)N3CCC4(CC3)CCN(c3ccncc3)CC4)c2C1`
Reply text: 35

Inquiry: Please indicate inhibition at 10 µM recorded for `Cc1ccc(C(=O)N2CCc3ccc(C(=O)N4CCC5(CC4)CCN(c4ccncc4)CC5)cc3C2)s1`
Reply text: 100
